Reference source: the supplement of paper PMC10065799

# Test system: c-Abl (mouse);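 also: 11-residue human phosphosite peptides and single-mutation variants displayed on the E. coli surface, counted by deep sequencing, each peptide's frequency after selection divided by its frequency in the unselected input library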;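 also: frequency after pTyr selection over input frequency; kinase dosed for 20-30% of maximal phosphorylation in three min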
# assayText: phosphorylation enrichment, bacterial display (enrichment ratio); higher = better substrate or ligand; peptides without Tyr show the background
reportedMetric: phosphorylation enrichment

Report phosphorylation enrichment for LPPREYVVVPS [CAPN1_Y494_G492R] please. 0.726

Report phosphorylation enrichment for PLLEYYRDIFT [CDAN1_Y713] please. 1.45

Report phosphorylation enrichment for AIIGIYILRDD [CDH23_Y2949] please. 0.965

Report phosphorylation enrichment for LHSEAYLKYNE [PBRM1_Y1610_I1614N] please. 1.25

Report phosphorylation enrichment for TLNHQYDYTFD [CSNK1A1_Y292] please. 0.565

Report phosphorylation enrichment for RASGIYYVPKG [APBB1IP_Y340] please. 43.9

Report phosphorylation enrichment for KSVITYSPTTG [ITGB3BP_Y32] please. 0.447
